- Tested on: Human papillomavirus type 1a E7 protein (residues 1-88)
- procedure-summary: HPV1a E7 small-molecule binders, primary screen, biochemical, small-molecule microarray, residues 1-88, 635 nm (AID 1129)
- test-parameters: small-molecule microarray binding, fluorescence 635 nm; higher = more signal
Recorded composite z-score values for a group of compounds are listed next.
Please give only the number in your answer, with no unit.

The examples below pair each entry with its known result.
# molecular-string, composite z-score
measured = [
    ("COCCCNC(=O)[C@@]1(c2ccc([N+](=O)[O-])cc2)CC(=O)N(CC23CC4CC(CC(C4)C2)C3)[C@@H]1c1ccc(CO)cc1I", 0.892),
    ("CC(C)C[C@@H]1NC(=O)[C@@H]2C[C@H](C(=O)NCCCCCC[N+](C)(C)C)[C@H](c3cccc(OCCO)c3)N2C1=O", -0.0265),
]

Now look at this entry.
Query: Look up composite z-score of COC(=O)C(CC#Cc1ccc2c(c1)[C@]1(C(=O)N2)[C@H](c2ccc(OCCO)cc2)N2[C@H](c3ccccc3)[C@H](c3ccccc3)OC(=O)[C@H]2[C@@H]1C(=O)N1CCN(c2ncccn2)CC1)C(=O)OC and report it.
Response: 1.21
